target: T1, hIL2-DM-his (human, UniProt P60568 21-153); assay: BLI ForteBio, Ab on Protein A sensor
T1 construct: expressed in ExpiCHO-S cells, nickel-column purified; also called hIL-2 mutein containing two point mutations K64G and N90R (with a his-tag); not shown: his-tag
T1 sequence (P60568 21-153 K84G/N110R): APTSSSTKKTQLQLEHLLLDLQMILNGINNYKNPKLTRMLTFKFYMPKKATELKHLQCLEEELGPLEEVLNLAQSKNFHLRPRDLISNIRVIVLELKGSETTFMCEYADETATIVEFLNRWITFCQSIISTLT
result_type: koff (s⁻¹)

{"binder": "K2G3 (antibody, V domains shown) VH: QVQLVQSGAEVKKPGATVKISCKVSGDTITAYYMHWVRQAPGQGLEWIGRIDPDDDSTKYAENFKGRVTITADTSTDTAYMELSSLRSEDTAVYYCTTVTFYYSRELRWFAYWGQGTLVTVSS VL: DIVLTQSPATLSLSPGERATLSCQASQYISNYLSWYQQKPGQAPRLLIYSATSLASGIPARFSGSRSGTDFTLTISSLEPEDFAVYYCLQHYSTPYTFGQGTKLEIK", "recorded_value": 0.000512}
{"binder": "K3G6 (antibody, V domains shown) VH: QVQLVQSGAEVKKPGATVKISCKVSGDTITAYYMHWVRQAPGQGLEWIGRIDPDDDSTKYAENFKGRVTITADTSTDTAYMELSSLRSEDTAVYYCTTITFYYSRELRWFAYWGQGTLVTVSS VL: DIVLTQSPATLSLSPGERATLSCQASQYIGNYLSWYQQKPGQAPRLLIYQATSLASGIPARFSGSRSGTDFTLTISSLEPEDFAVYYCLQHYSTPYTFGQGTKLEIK", "recorded_value": 0.000844}
{"binder": "K3G9 (antibody, V domains shown) VH: QVQLVQSGAEVKKPGATVKISCKVSGDTITAYYMHWVRQAPGQGLEWIGRIDPEDDSTKYAENFKGRVTITADTSTDTAYMELSSLRSEDTAVYYCTTITFLYTRELRWFAYWGQGTLVTVSS VL: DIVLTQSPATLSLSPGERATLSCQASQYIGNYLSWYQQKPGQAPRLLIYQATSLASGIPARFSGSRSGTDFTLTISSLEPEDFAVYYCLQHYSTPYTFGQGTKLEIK", "recorded_value": 0.000529}

All values here come from patent US20250346644A1.
